Target: NaV1.7 (Homo sapiens)
Construct: expressed in transfected cells; host or cells: unnamed tetracycline-inducible cell line, kept under hygromycin and blasticidin selection
Sequence (Q15858 whole entry): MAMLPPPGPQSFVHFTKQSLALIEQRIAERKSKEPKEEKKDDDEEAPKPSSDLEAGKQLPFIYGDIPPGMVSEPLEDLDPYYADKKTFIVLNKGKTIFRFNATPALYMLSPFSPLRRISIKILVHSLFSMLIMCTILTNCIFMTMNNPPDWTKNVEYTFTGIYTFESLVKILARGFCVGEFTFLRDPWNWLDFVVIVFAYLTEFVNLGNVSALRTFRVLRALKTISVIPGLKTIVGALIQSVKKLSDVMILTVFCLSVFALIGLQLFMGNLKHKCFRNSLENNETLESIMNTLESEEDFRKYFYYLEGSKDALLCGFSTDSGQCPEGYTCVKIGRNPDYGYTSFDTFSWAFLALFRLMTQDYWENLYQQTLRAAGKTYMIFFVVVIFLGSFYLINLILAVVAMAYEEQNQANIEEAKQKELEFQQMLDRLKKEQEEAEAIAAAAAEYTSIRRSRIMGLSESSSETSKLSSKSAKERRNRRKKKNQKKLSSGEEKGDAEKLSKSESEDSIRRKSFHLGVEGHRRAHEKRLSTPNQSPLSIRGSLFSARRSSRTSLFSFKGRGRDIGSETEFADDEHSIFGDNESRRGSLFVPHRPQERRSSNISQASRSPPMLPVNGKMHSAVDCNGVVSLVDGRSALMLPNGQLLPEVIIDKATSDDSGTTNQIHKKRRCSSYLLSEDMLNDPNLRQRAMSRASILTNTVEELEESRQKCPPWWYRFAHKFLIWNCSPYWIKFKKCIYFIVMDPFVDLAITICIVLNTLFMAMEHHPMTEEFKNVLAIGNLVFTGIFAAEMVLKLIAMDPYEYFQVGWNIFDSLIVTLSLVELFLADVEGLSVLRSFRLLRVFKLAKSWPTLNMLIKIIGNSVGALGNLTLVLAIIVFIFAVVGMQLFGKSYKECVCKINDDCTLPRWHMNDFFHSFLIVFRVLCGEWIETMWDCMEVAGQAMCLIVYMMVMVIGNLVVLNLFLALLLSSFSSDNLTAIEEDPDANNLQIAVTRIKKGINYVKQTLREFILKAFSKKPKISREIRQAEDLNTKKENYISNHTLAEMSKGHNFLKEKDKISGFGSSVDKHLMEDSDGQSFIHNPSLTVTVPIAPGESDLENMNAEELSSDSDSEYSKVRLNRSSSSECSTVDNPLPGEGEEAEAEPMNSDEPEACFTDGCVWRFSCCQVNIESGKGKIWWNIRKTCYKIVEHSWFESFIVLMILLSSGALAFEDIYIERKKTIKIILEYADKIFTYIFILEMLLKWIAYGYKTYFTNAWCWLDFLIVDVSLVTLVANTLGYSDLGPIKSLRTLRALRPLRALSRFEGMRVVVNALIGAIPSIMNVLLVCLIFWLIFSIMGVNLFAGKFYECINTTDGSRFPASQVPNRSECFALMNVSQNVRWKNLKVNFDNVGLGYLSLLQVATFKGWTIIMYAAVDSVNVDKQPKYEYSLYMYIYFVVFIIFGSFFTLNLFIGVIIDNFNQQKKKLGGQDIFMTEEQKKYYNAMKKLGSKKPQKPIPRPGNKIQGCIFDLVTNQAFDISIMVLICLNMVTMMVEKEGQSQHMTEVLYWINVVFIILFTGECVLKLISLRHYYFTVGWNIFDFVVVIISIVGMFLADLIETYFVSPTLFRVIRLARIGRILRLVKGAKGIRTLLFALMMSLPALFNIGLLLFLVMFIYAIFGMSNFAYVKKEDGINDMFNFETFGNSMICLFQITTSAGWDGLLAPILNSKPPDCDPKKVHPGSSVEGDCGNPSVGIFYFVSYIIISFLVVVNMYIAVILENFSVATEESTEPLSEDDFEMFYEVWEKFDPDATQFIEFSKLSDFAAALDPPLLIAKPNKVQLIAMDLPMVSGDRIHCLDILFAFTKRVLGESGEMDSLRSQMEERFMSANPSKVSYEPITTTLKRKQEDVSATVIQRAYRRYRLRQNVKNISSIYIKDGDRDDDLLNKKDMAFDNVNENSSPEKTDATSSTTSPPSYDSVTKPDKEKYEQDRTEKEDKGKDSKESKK
Assay: Nav1.7 intracellular inhibition (internal block), whole cell patch clamp
Format: cell-based
Details: % inhibition at 1 μM test concentration, compound in internal solution, 5 Hz stimulation
Measured inhibition at 1 µM, listed per entry for reference.

Req: Give the measured inhibition at 1 µM of CC[N+]1(CC(=O)Nc2c(C)cccc2C)CCCC(c2ccccc2)C1 (stereo not drawn) [Compound 1A] .
Resp: > 90%

Req: Sample CC[N+]1(CC(=O)Nc2c(C)cccc2C)CCC[C@H](c2ccccc2)C1.[I-] (stereo partly drawn) [Compound 3A] — what was its inhibition at 1 µM?
Resp: > 90%

Req: Look at this molecule and give its reported inhibition at 1 µM. CC[N+]1(CC(=O)Nc2c(C)cccc2C)CCC[C@@H](c2ccccc2)C1.[I-] (stereo partly drawn) [Compound 2A]
Resp: > 90%

Req: Given the molecule CC[N+]1(CC(=O)Nc2c(C)cccc2C)CCCCC1c1ccccc1 (stereo not drawn) [Compound 5A] , what is its reported inhibition at 1 µM?
Resp: 70 to 90%
